The measurements presented in this section are drawn from ChEMBL document CHEMBL3286148.

- Tested on: Mus musculus
- assay-procedure: AUC (0 to 23 hrs) in Plasmodium falciparum 3D70087/N9 infected NODscidIL2Rgamma-null mouse at 50 mg/kg, po by LC-MS/MS analysis
- measurement-conditions: in vivo
measured-attribute: AUC

// returns AUC for CC(Oc1ccc2nc(N)n(CC(O)c3ccc(C(F)(F)F)cc3Cl)c2n1)C(F)(F)F (racemic) with Mus musculus; value = 3480 ng·h/mL

* * *

Form field: log10 of microsomal CLint (one value per entry).
- assay-procedure: Clearance in mouse liver microsomes
- Type: ADME
- measurement-conditions: read-out: CLH
# log10 transformed; quantity=microsomal CLint; unit=µL/min/mg

Before answering, review these 5 worked examples.
# compound, data-value
rows = [
    ("CN1CCN(c2ccc3nc(N)n(CC(O)c4ccc(C(F)(F)F)cc4Cl)c3n2)CC1 (racemic)", 2.01),
    ("Nc1nc2ccccc2n1CC(O)c1ccc(Cl)cc1Cl (racemic)", 2.33),
    ("Nc1nc2ccc(C(F)(F)F)cc2n1CC(O)c1ccc(C(F)(F)F)cc1Cl (racemic)", 1.79),
    ("Nc1nc2ccc(NCC(F)(F)F)nc2n1CC(O)c1ccc(Cl)cc1Cl (racemic)", 1.94),
    ("Nc1nc2cnccc2n1CC(O)c1ccc(Cl)cc1Cl (racemic)", 1.61),
]

Noted for CC(Oc1ccc2nc(N)n(CC(O)c3ccc(C(F)(F)F)cc3Cl)c2n1)C(F)(F)F (racemic) : its log10 of microsomal CLint reads 1.28

Entry Nc1nc2ccc(OC3CCOC3)nc2n1CC(O)c1ccc(C(F)(F)F)cc1Cl (racemic) , log10 of microsomal CLint reported as 1.95

# compound Nc1nc2ccc(OCC(F)(F)F)nc2n1CC(O)c1ccc(C(F)(F)F)cc1Cl (racemic) ; its log10 of microsomal CLint = 1.32
